// data source = patent US11839613B2

molecular target: EP2 (Homo sapiens (Human), UniProt P43116); experiment: hEP2 cAMP assay (SF295 glioblastoma cells, HTRF cAMP); conditions: antagonistic activity
Sequence (P43116 whole entry): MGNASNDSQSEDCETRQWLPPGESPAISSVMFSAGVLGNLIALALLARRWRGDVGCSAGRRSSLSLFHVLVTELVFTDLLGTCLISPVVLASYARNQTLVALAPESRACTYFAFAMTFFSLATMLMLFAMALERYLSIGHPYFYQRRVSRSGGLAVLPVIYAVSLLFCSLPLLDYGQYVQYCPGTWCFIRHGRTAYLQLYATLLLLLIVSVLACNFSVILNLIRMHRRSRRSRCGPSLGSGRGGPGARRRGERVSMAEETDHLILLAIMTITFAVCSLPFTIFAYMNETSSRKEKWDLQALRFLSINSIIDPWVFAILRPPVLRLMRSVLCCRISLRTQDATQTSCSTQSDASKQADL
assay.endpoint: IC50 (nM)
Write the number in nM without appending the unit.

Entry "CCOc1cc(-c2cc(NCCc3c(F)cc4ncccc4c3F)ncn2)ccc1C(=O)O" under EP2 (Homo sapiens (Human), UniProt P43116) had IC50 of 408

Entry "CCOc1cc(-c2cc(NCCc3c(OCC)cc4ccccc4c3F)ncn2)ccc1C(=O)O" , EP2 (Homo sapiens (Human), UniProt P43116) data, IC50 value: 110

Summary line: "O=C(O)c1ccc(-c2cc(NCCc3cc4ccoc4cc3F)ncn2)cc1OC1CCC1" , EP2 (Homo sapiens (Human), UniProt P43116), reported IC50 = 108

Value (IC50, EP2 (Homo sapiens (Human), UniProt P43116)) for record "CCOc1cc(-c2cc(NCCc3ccc4c(c3)c(C)cn4C)ncn2)sc1C(=O)O" = 482

Tested on EP2 (Homo sapiens (Human), UniProt P43116), the item "CCOc1cc(-c2cc(NCCc3c(OC)cc4occc4c3C)ncn2)ccc1OCC(=O)O" showed IC50 equal to 6

Response field IC50 (EP2 (Homo sapiens (Human), UniProt P43116)) for item "Fc1cc2ncccc2c(F)c1CCNc1cc(-c2ccc3[nH]ccc3c2)ncn1" : 249

# lookup: "O=C(O)c1ccc(-c2cc(NCCc3ccc4c(c3)OCC4)ncn2)cc1OC1CCC1" on EP2 (Homo sapiens (Human), UniProt P43116), IC50 = 520

Record "O=C(O)c1ccc(-c2cc(NCCc3ccc4c(c3)OCCO4)ncn2)cc1OC1CCC1" ; system EP2 (Homo sapiens (Human), UniProt P43116); IC50 = 552

Measured on EP2 (Homo sapiens (Human), UniProt P43116), "CCOc1cc(-c2cc(NCCc3cc4c(cc3Cl)NCCO4)ncn2)sc1C(=O)O" has a documented IC50 of 619
